- Tgt: D(3) dopamine receptor (Homo sapiens) (UniProt P35462)
- Sequence (P35462 whole entry): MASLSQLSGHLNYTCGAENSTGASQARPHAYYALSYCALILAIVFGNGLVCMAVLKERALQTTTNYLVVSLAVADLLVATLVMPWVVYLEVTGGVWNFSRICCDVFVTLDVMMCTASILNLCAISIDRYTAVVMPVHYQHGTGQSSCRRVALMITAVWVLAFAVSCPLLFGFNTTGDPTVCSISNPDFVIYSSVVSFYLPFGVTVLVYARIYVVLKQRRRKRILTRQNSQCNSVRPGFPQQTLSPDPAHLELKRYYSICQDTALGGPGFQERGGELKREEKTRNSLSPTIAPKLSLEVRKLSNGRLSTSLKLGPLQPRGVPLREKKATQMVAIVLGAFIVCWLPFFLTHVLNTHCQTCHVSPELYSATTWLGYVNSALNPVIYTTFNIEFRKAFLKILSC
- Reported Conditions: Compound concentration 10 µM
- Description: PDSP Primary Binding target: DRD3 - Compounds are tested at 10 uM concentration, plate are incubated at room temperature in the dark for 90 minutes. Reaction are stopped by vacuum filtration onto 0.3% polyethyleneimine soaked filter mats using Filtermate harvester. Scintilation cocktail is then melted onto microwave-dried filters on a hot plate and the radio activity is counted in Microbia counter.
Measured Attribute: inhibition (%)
Dear colleague, please return just the value in %, with no unit written.

Form field: inhibition recorded for CCCCCNC(=N)N/N=C/c1c[nH]c2ccc(OC)cc12 with D(3) dopamine receptor (Homo sapiens) (UniProt P35462) (enter value)
70

# repeat for COc1ccc(S(=O)(=O)c2cc(OC)ccc2S(=O)(=O)c2ccc([C@H](C)NS(C)(=O)=O)cc2)cc1
73.4

# repeat for N#Cc1ccc(NC(=O)Nc2ccccc2Br)c2nn[nH]c12
43.3

# repeat for COc1cccc([C@@H](C)NCCCc2ccccc2Cl)c1
85

# repeat for COc1cccc(-c2c(C)n(Cc3c(F)cccc3C(F)(F)F)c(=O)n(C[C@H](NCCCC(=O)O)c3ccccc3)c2=O)c1F
21.6

# repeat for N=C(N)SCCc1c[nH]cn1
-0.38

# repeat for Cc1nc(C(=O)N2CCC[C@H]2Cc2nnc(-c3ccccc3)o2)c(-c2ccccc2F)s1
45

# repeat for Cc1c(P(=S)(c2ccccc2)c2ccccc2)n2ccccc2[n+]1C/C=C/c1ccccc1
48.5

# repeat for N[C@H](C(=O)O)c1ccc(C(=O)O)c(C(=O)O)c1
62.5

# repeat for CC(C)NC(=O)c1ccc(C#Cc2ccncc2)cn1
26.8
